TARGET OR SYSTEM: DP (Homo sapiens)
Sequence (Q13258 whole entry): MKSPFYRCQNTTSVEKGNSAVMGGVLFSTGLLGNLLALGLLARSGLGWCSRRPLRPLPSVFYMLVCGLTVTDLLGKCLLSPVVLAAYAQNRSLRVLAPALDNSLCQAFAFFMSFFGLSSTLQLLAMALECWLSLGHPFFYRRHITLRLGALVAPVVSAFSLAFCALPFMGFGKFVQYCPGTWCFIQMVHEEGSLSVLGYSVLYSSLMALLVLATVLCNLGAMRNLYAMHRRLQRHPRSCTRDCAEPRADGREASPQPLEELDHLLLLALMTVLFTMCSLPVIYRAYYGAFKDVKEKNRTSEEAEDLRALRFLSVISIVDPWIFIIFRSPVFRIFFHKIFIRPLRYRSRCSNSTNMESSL
PROTOCOL: Other receptors Ca2+ assay, DP
CONDITION DESCRIPTION: DP receptor
Text: U.S. patent application Ser. No. 11/553,143, filed on Oct. 26, 2006, incorporated by reference herein, describes the methods used to obtain the in vitro data in Table 1 below.
Listed here: items and their measured log10 of EC50.
A difference of one corresponds to tenfold EC50; all values are log10 with EC50 in nM.

>>> df
                                   compound  recorded_number
0  CCCCCC=C[C@@H]1[C@@H](CCCc2ccc(C(=O)O)s2)[C@H](Cl)C[C@H]1O             2.53

Quick check: log10 of EC50 of CCCCCC(O)/C=C/[C@@H]1[C@@H](CCCc2ccc(C(=O)O)s2)[C@H](Cl)C[C@H]1O (single isomer, unassigned) [Entry 15] ?
1.00

Quick check: log10 of EC50 of CCCCCC[C@@H]1[C@@H](CCCc2ccc(C(=O)O)s2)[C@H](Cl)C[C@H]1O ?
3.25

Quick check: log10 of EC50 of CCCCC[C@@H]1[C@@H](CCCc2ccc(C(=O)O)s2)[C@H](Cl)C[C@H]1O ?
3.32

###

TARGET OR SYSTEM: TP (Homo sapiens, UniProt P21731)
Sequence (P21731 1-343): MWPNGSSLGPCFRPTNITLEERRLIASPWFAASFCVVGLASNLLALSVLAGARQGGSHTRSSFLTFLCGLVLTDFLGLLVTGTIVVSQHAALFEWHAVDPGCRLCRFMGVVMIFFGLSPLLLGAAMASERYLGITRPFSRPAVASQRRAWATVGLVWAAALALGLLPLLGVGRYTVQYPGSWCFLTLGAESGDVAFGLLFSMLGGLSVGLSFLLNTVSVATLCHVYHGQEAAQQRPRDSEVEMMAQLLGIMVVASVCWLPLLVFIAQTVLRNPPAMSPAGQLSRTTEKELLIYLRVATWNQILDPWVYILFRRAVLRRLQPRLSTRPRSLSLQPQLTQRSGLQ
PROTOCOL: Other receptors Ca2+ assay, TP
CONDITION DESCRIPTION: TP receptor
Listed here: items and their measured EC50.

                                   compound  readout_type      result
0  CCCCCCC[C@@H]1[C@@H](CCCc2ccc(C(=O)O)s2)[C@H](Cl)C[C@H]1O          EC50  ≥ 10000 nM
1  CCCCCC(O)/C=C/[C@@H]1[C@@H](CCCc2ccc(C(=O)O)s2)[C@H](Cl)C[C@H]1O (single isomer, unassigned)          EC50      178 nM
2  CCCCC[C@@H]1[C@@H](CCCc2ccc(C(=O)O)s2)[C@H](Cl)C[C@H]1O          EC50      187 nM

Attention now turns to another entry.
Quick check: EC50 of CCCCCC[C@@H]1[C@@H](CCCc2ccc(C(=O)O)s2)[C@H](Cl)C[C@H]1O ?
2990 nM

###

TARGET OR SYSTEM: EP4 (Homo sapiens, UniProt P35408)
Sequence (P35408 whole entry): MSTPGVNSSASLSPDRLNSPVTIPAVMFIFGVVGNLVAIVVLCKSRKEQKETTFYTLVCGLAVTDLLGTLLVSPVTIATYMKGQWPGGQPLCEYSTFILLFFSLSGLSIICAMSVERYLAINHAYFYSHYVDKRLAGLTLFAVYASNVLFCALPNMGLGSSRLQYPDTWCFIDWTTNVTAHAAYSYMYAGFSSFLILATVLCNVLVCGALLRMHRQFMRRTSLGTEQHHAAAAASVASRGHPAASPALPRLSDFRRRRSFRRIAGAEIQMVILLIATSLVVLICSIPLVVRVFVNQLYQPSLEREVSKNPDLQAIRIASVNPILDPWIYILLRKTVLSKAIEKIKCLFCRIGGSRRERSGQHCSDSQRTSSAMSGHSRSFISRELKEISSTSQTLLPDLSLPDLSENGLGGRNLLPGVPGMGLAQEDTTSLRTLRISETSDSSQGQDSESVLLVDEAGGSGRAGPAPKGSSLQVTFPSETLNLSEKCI
PROTOCOL: EP4 Ca2+ signal assay
READOUT TYPE: EC50 (µM)
Kindly answer with a numeric value in µM, unit omitted.

Recorded results for 2 molecules are shown here.
In [3]: df
Out[3]:
                                   molecule  unit_descriptor  recorded_number
0  CCCC/C=C/CC[C@@H]1[C@@H](CCCc2ccc(C(=O)O)s2)[C@H](Cl)C[C@H]1O               µM            0.713
1  C=CCCCCCC[C@@H]1[C@@H](CCCc2ccc(C(=O)O)s2)[C@H](Cl)C[C@H]1O               µM             6.47

Quick check: EC50 of CCCCCC(O)/C=C/[C@@H]1[C@@H](CCCc2ccc(C(=O)O)s2)[C@H](Cl)C[C@H]1O (single isomer, unassigned) [Entry 16] ?
0.042

Quick check: EC50 of CCCCCC=C[C@@H]1[C@@H](CCCc2ccc(C(=O)O)s2)[C@H](Cl)C[C@H]1O ?
9.1

Quick check: EC50 of CCCCCC(O)/C=C/[C@@H]1[C@@H](CCCc2ccc(C(=O)O)s2)[C@H](Cl)C[C@H]1O (single isomer, unassigned) [Entry 15] ?
0.0002

Quick check: EC50 of O=C(O)c1ccc(CCC[C@@H]2[C@@H](CCCCCCCO)[C@H](O)C[C@H]2Cl)s1 ?
23.7

Quick check: EC50 of CCCCC[C@@H]1[C@@H](CCCc2ccc(C(=O)O)s2)[C@H](Cl)C[C@H]1O ?
9.1

Quick check: EC50 of CCCCCCCC[C@@H]1[C@@H](CCCc2ccc(C(=O)O)s2)[C@H](Cl)C[C@H]1O ?
11.4

###

TARGET OR SYSTEM: EP2 (Homo sapiens, UniProt P43116)
Sequence (P43116 whole entry): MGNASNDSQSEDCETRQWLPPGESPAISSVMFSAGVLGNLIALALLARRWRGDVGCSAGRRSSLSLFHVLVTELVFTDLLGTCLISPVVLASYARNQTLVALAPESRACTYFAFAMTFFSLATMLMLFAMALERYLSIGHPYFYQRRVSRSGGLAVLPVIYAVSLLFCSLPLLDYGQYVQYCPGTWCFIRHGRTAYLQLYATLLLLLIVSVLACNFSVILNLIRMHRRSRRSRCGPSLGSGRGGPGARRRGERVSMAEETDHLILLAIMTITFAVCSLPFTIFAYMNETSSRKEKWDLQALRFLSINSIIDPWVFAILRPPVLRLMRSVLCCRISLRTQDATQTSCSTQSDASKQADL
PROTOCOL: EP2 cAMP assay
Format: cell-based
Listed here: items and their measured pEC50.
Please note pEC50 is a logarithmic value: minus log10 of concentration in mol/L. Answer with that number alone.

Recorded results for 3 molecules are shown here.
>>> print(df.to_string())
                                   molecule  recorded_number
0  CCCCCC(O)/C=C/[C@@H]1[C@@H](CCCc2ccc(C(=O)O)s2)[C@H](Cl)C[C@H]1O (single isomer, unassigned) [Entry 15]             9.40
1  CCCCCC[C@@H]1[C@@H](CCCc2ccc(C(=O)O)s2)[C@H](Cl)C[C@H]1O             9.15
2  CCCCCCCC=C[C@@H]1[C@@H](CCCc2ccc(C(=O)O)s2)[C@H](Cl)C[C@H]1O             8.40

Quick check: pEC50 of CCCCCCC[C@@H]1[C@@H](CCCc2ccc(C(=O)O)s2)[C@H](Cl)C[C@H]1O ?
8.70

Quick check: pEC50 of CCCCCC=C[C@@H]1[C@@H](CCCc2ccc(C(=O)O)s2)[C@H](Cl)C[C@H]1O ?
8.10

Quick check: pEC50 of CCCCCC(O)/C=C/[C@@H]1[C@@H](CCCc2ccc(C(=O)O)s2)[C@H](Cl)C[C@H]1O (single isomer, unassigned) [Entry 16] ?
8.30

Quick check: pEC50 of CCCCCCCCCC[C@@H]1[C@@H](CCCc2ccc(C(=O)O)s2)[C@H](Cl)C[C@H]1O ?
8.70

Quick check: pEC50 of CCCCC[C@@H]1[C@@H](CCCc2ccc(C(=O)O)s2)[C@H](Cl)C[C@H]1O ?
9.00

Quick check: pEC50 of CCCCCCCCC[C@@H]1[C@@H](CCCc2ccc(C(=O)O)s2)[C@H](Cl)C[C@H]1O ?
8.52

###

TARGET OR SYSTEM: TP (Homo sapiens, UniProt P21731)
PROTOCOL: Other receptors Ca2+ assay, TP
CONDITION DESCRIPTION: TP receptor
READOUT TYPE: EC50

Recorded results for 2 molecules are shown here.
                               input_smiles  readout_type    result
0  CCCCCC=C[C@@H]1[C@@H](CCCc2ccc(C(=O)O)s2)[C@H](Cl)C[C@H]1O          EC50    230 nM
1  C=CCCCCCC[C@@H]1[C@@H](CCCc2ccc(C(=O)O)s2)[C@H](Cl)C[C@H]1O          EC50  10300 nM

Attention now turns to another entry.
Quick check: EC50 of CCCC=C[C@@H]1[C@@H](CCCc2ccc(C(=O)O)s2)[C@H](Cl)C[C@H]1O ?
249 nM

###

TARGET OR SYSTEM: EP2 (Homo sapiens)
PROTOCOL: EP2 cAMP assay
Type: cell-based
Listed here: items and their measured EC50.
Kindly answer with a numeric value in nM, unit omitted.

Recorded results for 7 compounds are shown here.
>>> df
                               input_smiles  recorded_number
0  C=CCCCCCC[C@@H]1[C@@H](CCCc2ccc(C(=O)O)s2)[C@H](Cl)C[C@H]1O              0.2
1  O=C(O)c1ccc(CCC[C@@H]2[C@@H](C=CCCCCCCO)[C@H](O)C[C@H]2Cl)s1               14
2  CCCCCCCC[C@@H]1[C@@H](CCCc2ccc(C(=O)O)s2)[C@H](Cl)C[C@H]1O              0.4
3  CCCCCCCCC=C[C@@H]1[C@@H](CCCc2ccc(C(=O)O)s2)[C@H](Cl)C[C@H]1O               15
4  CCCC=C[C@@H]1[C@@H](CCCc2ccc(C(=O)O)s2)[C@H](Cl)C[C@H]1O               55
5  CCCC/C=C/CC[C@@H]1[C@@H](CCCc2ccc(C(=O)O)s2)[C@H](Cl)C[C@H]1O                2
6  O=C(O)c1ccc(CCC[C@@H]2[C@@H](C=CCCCCCO)[C@H](O)C[C@H]2Cl)s1              3.6

Attention now turns to another entry.
I'm curious: which EC50 was measured for O=C(O)c1ccc(CCC[C@@H]2[C@@H](CCCCCCCO)[C@H](O)C[C@H]2Cl)s1 tested on EP2 (Homo sapiens)?
0.3
